# Protocol text: NCI Yeast Anticancer Drug Screen. Data for the sgs1 strain (AID 173);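 also: 0% = growth of vehicle-only control cultures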
# Condition description: S. cerevisiae sgs1 mutant, at 33.0 µM, hits give high values
About 79,000 compounds went through this panel and 15% of them were active in at least one assay; those are over-represented in the sample as a whole.
Would you mind labelling by growth inhibition? At or over 80% is yes, under is no.

Some solved entries appear below for comparison.
INSERT INTO assay_data (compound, class_assignment) VALUES
  ('O=C1OC(=O)C2CCCC3CCCC1C32 (stereo unspecified)', 'yes'),
  ('Nc1ccccc1CC(O)C(=O)O (stereo unspecified)', 'yes'),
  ('CCCN(CCC)CC(O)c1cc(-c2ccc(Cl)cc2)nc2c(C)c(Cl)ccc12 (stereo unspecified)', 'yes'),
  ('CC(C)/C(Cl)=N\OC(=O)Nc1cccc(Cl)c1', 'no'),
  ('O=C(O)C1OC1(c1cccc(Cl)c1)c1ccccc1Cl (stereo unspecified)', 'no');

Field: next compound
Exercise: Tell me whether growth inhibition is at least 80% here: `O=[N+]([O-])C(=C(Sc1ccccc1)Sc1ccccc1)C(Cl)=C(Cl)Cl`
Key: no

* * *

# Protocol text: NCI Yeast Anticancer Drug Screen. Data for the bub3 strain (AID 167)
# Condition description: S. cerevisiae bub3 mutant strain, at 1.2 µM, hits give high values
The panel holds about 79,000 compounds, 15% with a hit somewhere; the sample as a whole holds those more often.
Value type: growth inhibition (%)
Numbers only, in %.

# example entries with known answers
INSERT INTO assay_data (compound, value_type, u, recorded_number) VALUES
  ('CC1C(NNc2ccccc2)Oc2cc3c(cc2C1c1ccccc1O)OCO3 (stereo unspecified)', 'growth inhibition', '%', -11),
  ('CC(C)C1=CCC2C(=C1)CCC1C(C)(C(=O)O)CCCC21C (stereo unspecified) (tested in a mixture with another compound)', 'growth inhibition', '%', 8),
  ('CC(Br)C(=O)c1ccc2cc(Br)c3ccccc3c2c1 (stereo unspecified)', 'growth inhibition', '%', -7),
  ('Cc1cc(CO)c(O)c(CNCc2cc(C)cc(CO)c2O)c1', 'growth inhibition', '%', -14);

List the reported growth inhibition of each compound below.
1. CC1CCN(CCC(=O)c2ccc(Cl)cc2)CC1
2. COc1ccc2ccc3ccccc3c2c1C=O

Key:
1: 1; 2: -2

* * *

# Protocol text: NCI Yeast Anticancer Drug Screen. Data for the wt1 strain (AID 149);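 also: 0% = growth of vehicle-treated wt1 cultures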
# Condition description: S. cerevisiae wt1 strain (SPY 50644) growth inhibition; at 1.2 µM; hits give high values
About 79,000 compounds went through this panel and 15% of them were active in at least one assay; those are over-represented in the sample as a whole. The source made the active and inactive calls. Rule as the data show it: active = growth inhibition above about 70%; inactive = the rest.
Value type: growth inhibition

INSERT INTO measurements (compound, result) VALUES
  ('O=C(Nc1ccccc1)OCCc1ccc(Cl)c(Cl)c1', '-4% (inactive)'),
  ('Brc1ccc(-c2cc3c(cc2C2SCCS2)OCO3)cc1', '-24% (inactive)'),
  ('CCC#CCCCOC(=O)c1cc([N+](=O)[O-])cc([N+](=O)[O-])c1', '-6% (inactive)'),
  ('CC[C@@]1(O)C(=O)OCc2c1cc1n(c2=O)Cc2cc3c(N)cccc3nc2-1', '22% (inactive)'),
  ('Nc1ccc2c(c1)C(=O)c1cccc(N)c1C2=O', '-1% (inactive)'),
  ('O=C1C=CC(=Nc2ccc3c(c2)Cc2cc(NC(=O)C(F)(F)F)ccc2-3)O1', '3% (inactive)');

// for each compound below, give its growth inhibition
1. O=[n+]1c2ccc(Cl)cc2n([O-])c2ccc(Cl)cc21
2. O=[N+]([O-])c1cccc2nccc(NCCCO)c12
3. COc1ccc(/C=C/C(=O)C(C)(C)Br)cc1
4. O=C1C=CC(=O)c2c(O)c(Nc3ccc(OC(F)(F)F)cc3)c(Cl)c(O)c21
5. O=C(NCCCCNCCCNC(=O)c1cc(-c2ccccc2)nc2ccccc12)c1cc(-c2ccccc2)nc2ccccc12

Key:
1: -2% (inactive); 2: 1% (inactive); 3: 4% (inactive); 4: 23% (inactive); 5: 6% (inactive)

* * *

# Protocol text: NCI Yeast Anticancer Drug Screen. Data for the bub3 strain (AID 167)
# Condition description: S. cerevisiae bub3 mutant strain, at 50.0 µM (retest, dose inferred, filed as 5.0), hits give high values
# Description: Growth inhibition of yeast strains with defined genetic alterations is measured as a screen for potential anti-cancer activity. Selected strains with alterations in DNA damage repair or cell cycle control were exposed to compounds and growth inhibition was measured relative to vehicle treated controls. The strain used in this assay is bub3
About 79,000 compounds went through this panel and 15% of them were active in at least one assay; those are over-represented in the sample as a whole.
Outcome: 1 for growth inhibition of at least 90%; 0 for anything lower.

Previously resolved entries follow.
INSERT INTO measurements (compound, class_assignment) VALUES
  ('CC(C)c1ccccc1NC(=O)/C(Cl)=C(\Cl)C(=O)O', 0),
  ('Oc1c(Br)cc(Br)cc1C1CCCCC1', 1),
  ('CCN(CC)CCNc1ccc([N+](=O)[O-])c2nc3ccc(OC)cc3c(N)c12', 0),
  ('CN1c2ccc(Cl)cc2C(=O)NC1c1ccc([N+](=O)[O-])s1 (configuration not stated)', 1),
  ('CN1CCc2ccccc2C1Cc1ccccc1NC(=O)c1sc2ccccc2c1Cl (configuration not stated)', 1);

Exercise: Kindly determine if growth inhibition recorded for `COc1ccccc1N=NC(C(=O)c1ccccc1)C(=O)c1ccccc1` is above or exactly 90%.
Key: 1

Exercise: Evaluate `NNC(=O)CCc1ccc2ccc3ccccc3c2c1` : growth inhibition at minimum 90%?
Key: 0

Exercise: Confirm if growth inhibition reported for the compound `CC(C)(Br)C(=O)/C=C/c1ccc(Cl)c(Cl)c1` is 90% or above.
Key: 0

Exercise: Reported growth inhibition reaches at least 90% for `[O-][n+]1c2ccc(O)cc2nc2ccc(Br)cc21` ?
Key: 0

Exercise: Record `[N-]=[N+]=NC1=C(c2ccccn2)C(=O)c2cccc3cccc1c23` ; criterion: growth inhibition no lower than 90%. Met?
Key: 0

Exercise: Exam item: decide whether the reported growth inhibition for `CCOC(=O)C1=C(C(=O)c2ccccc2)C(c2ccccc2[N+](=O)[O-])C(C(=O)c2ccccc2)=C(C(=O)OCC)N1` is at least 90%.
Key: 0

* * *

# Protocol text: NCI Yeast Anticancer Drug Screen. Data for the rad18 strain (AID 177)
# Condition description: S. cerevisiae rad18 mutant growth inhibition; at 33.0 µM; hits give high values
# Method: Growth inhibition of yeast strains with defined genetic alterations is measured as a screen for potential anti-cancer activity. Selected strains with alterations in DNA damage repair or cell cycle control were exposed to compounds and growth inhibition was measured relative to vehicle treated controls. The strain used in this assay is rad18
Compounds without any hit were thinned out: in the full panel of roughly 79,000, 15% have a hit.
Answer class 0 if growth inhibition is under 20%, and class 1 if it is 20% or more.

Take a look at these entries with their results.
INSERT INTO assay_data (compound, class_assignment) VALUES
  ('[O-][n+]1c2ccc(O)cc2nc2ccc(Br)cc21', 'class 1'),
  ('COc1cc(CC2CC(c3ccc4c(c3)OCO4)OC2=O)cc(OC)c1OC (configuration not stated)', 'class 0'),
  ('O=Nc1c(NO)ccc2nn(-c3ccccc3)nc12', 'class 1'),
  ('Cc1ccc(-n2cc(-c3ccc(Cl)cc3)c(C#N)c2N)cc1', 'class 0'),
  ('O=C1c2ccccc2C(=O)c2c(NC3CCCCC3)ccc(Nc3ccc(S(=O)(=O)O)cc3)c21', 'class 1'),
  ('COc1ccccc1N=NC(C(=O)c1ccccc1)C(=O)c1ccccc1', 'class 1'),
  ('Cc1ccc(S/N=C\c2ccccc2O)cc1', 'class 0'),
  ('NCCNc1ccc(NCCN)c2c1C(=O)c1c(O)ccc(O)c1C2=O', 'class 1'),
  ('COC1=CC(=O)C(C2(OC(C)C)OC(=O)C(Cl)=C2Cl)=CC1=O (configuration not stated)', 'class 1'),
  ('CSC(=S)N/N=C(\C)c1cccc(C)n1', 'class 1');

Exercise: Answer whether growth inhibition of `N/C(=N\OC(=O)NC(Cl)=C(Cl)Cl)c1cc(C(F)(F)F)cc(C(F)(F)F)c1` is greater than or equal to 20%.
Key: class 1

Exercise: Hi, just wondering whether CC(O)C(O)C(O)C(/C=N\Nc1ccccc1)=N/Nc1ccccc1 (configuration not stated) shows growth inhibition of 20% or higher.
Key: class 1

Exercise: growth inhibition >= 20% for `CCN(CC)CCNc1ccc([N+](=O)[O-])c2nc3ccc(OC)cc3c(N)c12` ?
Key: class 1

Exercise: Is growth inhibition at least 20%? Consider `COc1cc2ccc(/C=C\[N+](=O)[O-])cc2cc1OC`
Key: class 1

Exercise: Does the reported growth inhibition for `CCN(CC)CC[n+]1ccc2c(C)c3[nH]c4ccc(O)cc4c3c(C)c2c1` fall at or above the 20% mark?
Key: class 0

Exercise: Answer whether growth inhibition of CCCN(CCC)CC(O)c1cc(-c2ccc(Cl)cc2)nc2c(C)c(Cl)ccc12 (configuration not stated) is greater than or equal to 20%.
Key: class 1

Exercise: Is the recorded value of growth inhibition equal to or greater than 20% for this compound? `O=C(CC(=O)n1nc(-c2ccccc2)c(N=Nc2ccccc2C(=O)O)c1-c1ccccc1)Nc1ccc(Cl)cc1`
Key: class 0
